- testDescription: Stability of peptides in simulated gastric fluid (pH 1.5; HCl, NaCl and Pepsin)
- Assay type: in vitro ADME
- conditionDescription: simulated gastric fluid, 24 h, 2 μM, pH 1.5
Where a SMILES comes first, the peptide text is derived from it. [ ]: non-standard residue; d: D form. ξ: configuration not given here. ξBip(2'-Et-4'-OMe) = CCc1cc(OC)ccc1-c1ccc(CC(N)C(=O)O)cc1; Arg(NO2) = N=C(NCCC[C@H](N)C(=O)O)N[N+](=O)[O-]; αMePhe(2-F) = C[C@](N)(Cc1ccccc1F)C(=O)O; hArg = N=C(N)NCCCC[C@H](N)C(=O)O; Nle = CCCC[C@H](N)C(=O)O; Orn = NCCC[C@H](N)C(=O)O; Ac5c = NC1(C(=O)O)CCCC1; Aib = CC(C)(N)C(=O)O
parameter: % degradation of peptides in 24 h when incubated with simulated gastric fluid
Respond with a number, then the unit of measure.

CCCC[C@H](NC(=O)[C@](C)(Cc1ccccc1F)NC(=O)[C@H](CCC(N)=O)NC(=O)[C@@H](NC(=O)[C@H](CCC(=O)O)NC(=O)C(C)(C)NC(=O)[C@@H](NC(=O)C(C)(C)N)C(C)C)[C@@H](C)CC)C(=O)N[C@@H](Cc1c[nH]cn1)C(=O)N[C@@H](CCC(N)=O)C(=O)N[C@@H](CCCN)C(=O)N[C@@H](C)C(=O)N[C@@H](CCCNC(=N)N[N+](=O)[O-])C(=O)N[C@@](C)(Cc1ccccc1F)C(N)=O [Seq. ID. 329] (H-[Aib]V[Aib]EIQ[αMePhe(2-F)][Nle]HQ[Orn]A[Arg(NO2)][αMePhe(2-F)]-NH2): 100%

Consider the record given below.
Return reported % degradation of peptides in 24 h when incubated with simulated gastric fluid; argument: CCc1cc(OC)ccc1-c1ccc(CC(NC(=O)[C@H](CCCCN)NC(=O)[C@H](C)NC(=O)[C@H](CCCCNC(=N)N)NC(=O)[C@H](CCC(N)=O)NC(=O)[C@H](Cc2c[nH]cn2)NC(=O)[C@H](CCSC)NC(=O)[C@H](CC(C)C)NC(=O)[C@H](CCC(N)=O)NC(=O)[C@@H](NC(=O)[C@H](CCC(=O)O)NC(=O)C(C)(C)NC(=O)[C@@H](NC(=O)C2(N)CCCC2)C(C)C)[C@@H](C)CC)C(N)=O)cc1 (some centres unmarked) [Seq. ID. 650] (H-[Ac5c]V[Aib]EIQLMHQ[hArg]AK[ξBip(2'-Et-4'-OMe)]-NH2)
15%

---

- testDescription: Stability of peptides in human plasma
- Type: in vitro ADME
- conditionDescription: human, plasma, pH 7.8
Where a SMILES comes first, the peptide text is derived from it. [ ]: non-standard residue; d: D form. ξ: configuration not given here. ξαMePhe(2,6-F2) = CC(N)(Cc1c(F)cccc1F)C(=O)O; ξαMe(hhPhe) = CC(N)(CCCc1ccccc1)C(=O)O; ξαMePhe(2-F) = CC(N)(Cc1ccccc1F)C(=O)O; ξαMeW = CC(N)(Cc1c[nH]c2ccccc12)C(=O)O; hArg = N=C(N)NCCCC[C@H](N)C(=O)O; ξαMeNle = CCCCC(C)(N)C(=O)O; Nle = CCCC[C@H](N)C(=O)O; Ac5c = NC1(C(=O)O)CCCC1; Aib = CC(C)(N)C(=O)O
parameter: metabolised at 24 h, 2 μM (%)
The figure you give is taken to be in %; do not add the unit.

CCCC[C@H](NC(=O)C(C)(Cc1c(F)cccc1F)NC(=O)[C@H](CCC(N)=O)NC(=O)[C@@H](NC(=O)[C@H](CCC(=O)O)NC(=O)C(C)(C)NC(=O)[C@@H](NC(=O)C1(N)CCCC1)C(C)C)[C@@H](C)CC)C(=O)N[C@@H](Cc1c[nH]cn1)C(=O)N[C@@H](CCC(N)=O)C(=O)NC(C)(C)C(=O)NC(C)(C)C(=O)NC(C)(C)C(=O)NC(C)(Cc1ccccc1F)C(N)=O (some centres unmarked) [Seq. ID. 560] (H-[Ac5c]V[Aib]EIQ[ξαMePhe(2,6-F2)][Nle]HQ[Aib][Aib][Aib][ξαMePhe(2-F)]-NH2): 78

Turning now to a further record.
# get_value(readout='metabolised at 24 h, 2 μM', item= CCCCC(C)(NC(=O)[C@H](CC(C)C)NC(=O)[C@H](CCC(N)=O)NC(=O)[C@@H](NC(=O)[C@H](CCC(=O)O)NC(=O)C(C)(C)NC(=O)[C@@H](NC(=O)C(C)(C)N)C(C)C)[C@@H](C)CC)C(=O)N[C@@H](Cc1c[nH]cn1)C(=O)N[C@@H](CCC(N)=O)C(=O)N[C@@H](CCCCNC(=N)N)C(=O)N[C@@H](C)C(=O)N[C@@H](CCCCNC(=N)N)C(=O)NC(C)(Cc1c[nH]c2ccccc12)C(=O)NC(C)(CCCc1ccccc1)C(N)=O (some centres unmarked) [Seq. ID. 949] (H-[Aib]V[Aib]EIQL[ξαMeNle]HQ[hArg]A[hArg][ξαMeW][ξαMe(hhPhe)]-NH2) )
70

All figures here come from patent US8383581B2.
